# protocol description: Weight loss screen in Balb/C mice
# Format: in vivo
# assay context: Mus musculus, ip, 24 h, 60 mg/kg intraperitoneally, day1; read-out: Weight Loss
Where change in vivo at 60 mg/kg equals or exceeds 4%, the correct label is YES; where it does not, the label is NO.

* CCCCCCCCC1(C)SC(=O)C(C)=C1O (stereo not drawn) | NO
* CCCCCCCCC1(C)SC(=O)C=C1OC (stereo not drawn) | YES
* C=CCC1=C(OC)C(C)(CCCCCCCC)SC1=O (stereo not drawn) | YES
* CCCCCCCC[C@@]1(C)SC(=O)C=C1OC(=O)OC (racemic) | YES
* CCCCCCCC[C@@]1(C)SC(=O)C=C1OCC(=O)OCC (racemic) | NO

* * *

# System: MCF-7 human breast cancer cells
# protocol description: XTT cytotoxicity assay
# Assay type: cell-based
# assay context: MCF7, MCF-7, 72 hours, some cells marked (M)
property measured: IC50 (µg/mL)

* CCCCCCC1(C)SC(=O)C=C1OC (centres unmarked) | 9.4
* C=CCN(C)C(=O)COC1=CC(=O)SC1(C)CCCCCCCC (centres unmarked) | 9.2
* CCCCCCCCC1(C)SC(=O)C=C1OCC(=O)NNC(=O)c1ccco1 (centres unmarked) | 26.4
* CCCCCC[C@@]1(C)SC(=O)C=C1OCC(=O)NCC(=O)OC (racemic) | 40.5
